Every entry's value here was drawn from the supplement of paper PMC10567573.

B1: FAM46D (parent)
chain: FQEAMTHLQHKLICTRKPEEIRGG

variants of: B1; assay: protein stability index of a GFP-peptide fusion (GPS, HEK-293T) (PSI 1-6); higher = more stable; settings: c terminus: a fixed tail appended;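 note: lentivirally expressed fusions sorted by FACS into six bins by GFP to DsRed ratio, PSI derived from sequencing read proportions per bin multiplied by bin number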
observation_type: protein stability index
# answer = number (no unit)

Request: Give the measured protein stability index of FQEAMTHLQHKLIVTRKPEEIRGG [C14V] .
Response: 2.96

Request: Give the measured protein stability index of FQEAMTHLQKKLICTRKPEEIRGG [H10K] .
Response: 2.94

Request: Give the measured protein stability index of FQEAMTHLQHKLICDRKPEEIRGG [T15D] .
Response: 3.01
